Tested on: TK-10 renal
test-description: NCI-60 one-dose screen, 48 h
condition-info: 10 µM unless noted
Compounds without any hit were thinned out: in the full panel of roughly 83,000, 20% have a hit. The source made the active and inactive calls. Rule for the calls: active = growth percent below 10; inactive = the rest.
Possible outcomes: True for active, False for inactive

structure-as-smiles	class-name
Cc1cc(N(CCCNc2ccnc3cc(Cl)ccc23)Cc2ccco2)nc(Cl)n1	False
N#C/C(=C\c1ccc(-c2ccc(Br)cc2)o1)c1nc(-c2cccs2)cs1	False
Cn1c(=O)c2c(nc(Br)n2CC(=O)Nc2ccc(F)cc2)n(C)c1=O	False
CC(C)(C)c1ccc(OP(=S)(N/N=C/c2ccccc2O)Oc2ccc(C(C)(C)C)cc2)cc1	False
CN1CCN(CC#CCn2c3c(c4ccccc42)C[C@]2(C)[C@H]4CC[C@@H]5[C@H]6[C@H]7OC(=O)[C@@]6(CCC7(C)C)CC[C@@]5(C)[C@]4(C)CC[C@H]2C3(C)C)CC1	False
Clc1ccccc1-c1nc(Nc2nc3ccccc3s2)nc(C(Cl)(Cl)Cl)n1	False
CC(=O)c1c(C)[nH]c(-c2nc3ccc(N4CCN(C)CC4)cc3[nH]2)c1-c1ccc(N(C)C)cc1	True
CC/C=C\C[C@H]1CC=C2C(=O)C=C[C@@H]2CC=CCCCC(=O)O[C@@H](CCCCC)CC=C2C(=O)C=C[C@@H]2CC=CCCCC(=O)O[C@@H](CCCCC)CC=C2C(=O)C=C[C@@H]2CC=CCCCC(=O)O[C@@H](CCCCC)CC=C2C(=O)C=C[C@@H]2CC=CCCCC(=O)O1	False

====

System: LOX IMVI melanoma
test-description: NCI-60 one-dose screen, 48 h (100 = growth as untreated, 0 = no growth, -100 = all killed)
condition-info: 10 µM unless noted
The panel holds about 83,000 compounds, 20% with a hit somewhere; the sample as a whole holds those more often.

molecule	system-tested	growth, %
O=C1c2ccccc2NC(c2cn(-c3ccccc3)nc2-c2cccnc2)N1Cc1ccccc1 (stereo not given)	LOX IMVI melanoma	80.2
Nc1ncnc2nc(Br)[nH]c12	LOX IMVI melanoma	93.7
C=C1C(=O)O[C@H]2[C@H]1CC/C(COC(=O)NCc1cc3ccccc3[nH]1)=C\CC[C@@]1(C)O[C@@H]21	LOX IMVI melanoma	-15.8
COc1cc2[nH]c(C(=O)c3cc(OC)c(OC)c(OC)c3)c(N)c2cc1C#CCO	LOX IMVI melanoma	39.4
O=S(=O)(NCCNc1cc(-c2cn(-c3ccccc3)nc2-c2cccc(O)c2)ccn1)c1ccc(F)cc1	LOX IMVI melanoma	27.7

====

Tested on: OVCAR-4 ovarian
test-description: NCI-60 one-dose screen, 48 h
condition-info: 10 µM unless noted
Compounds without any hit were thinned out: in the full panel of roughly 83,000, 20% have a hit. Activity calls are given as the source filed them. How the source made its calls: active means growth percent below 10; inactive means the rest.
Outcome codes: 1 for active, -1 for inactive

compound	class-name
COc1ccc2c(c1)c1nc3cc(C)c(C)cc3nc1n2CCN(C)C	-1
Cc1ccc(Sc2sc(-c3ccccc3)nc2[P+](c2ccccc2)(c2ccccc2)c2ccccc2)cc1	1
COc1cnc2c(c1)C(=O)c1c-2n(CCCN2CCN(CCO)CC2)c(=O)c2cc([N+](=O)[O-])ccc12	-1
COc1ccccc1CNc1nc(N)nc2[nH]c3ccc(O)cc3c12	-1
Cn1c(=O)c2c(ncn2CC(=O)Nc2ccc(S(N)(=O)=O)cc2)n(C)c1=O	-1
COc1cccc(-c2nn(-c3ccccc3)cc2-c2ccnc(NCCNS(=O)(=O)c3ccccc3)c2)c1	-1
N#CC1=C(N)Oc2c(sc3c(F)cccc23)C1c1ccc(Cl)cc1 (stereo not drawn)	-1
CC/C=C\C[C@H]1CC=C2C(=O)C=C[C@@H]2CC=CCCCC(=O)O[C@@H](CCCCC)CC=C2C(=O)C=C[C@@H]2CC=CCCCC(=O)O[C@@H](CCCCC)CC=C2C(=O)C=C[C@@H]2CC=CCCCC(=O)O[C@@H](CCCCC)CC=C2C(=O)C=C[C@@H]2CC=CCCCC(=O)O1	-1

====

Tested on: CCRF-CEM leukemia
test-description: NCI-60 one-dose screen, 48 h
condition-info: 10 µM unless noted
Protocol: Growth inhibition of the CCRF-CEM human tumor cell line is measured as a screen for anti-cancer activity. Cells are grown in 96 well plates and exposed to the test compound for 48 hours. Compounds are tested at a single concentration, which is 10^-5 M for most compounds. The reported endpoint is percent growth (GI% or GIPRCNT), where numbers from 0 - 100% represent growth inhibition, and numbers from -100% - 0 represent cell death. For example, a value of 40 represents 60% growth inhibition. […]
About 83,000 compounds went through this panel and 20% of them were active in at least one assay; those are over-represented in the sample as a whole. Activity calls are given as the source filed them. Rule for the calls: active = growth percent below 10; inactive = the rest.
Outcome codes: active, inactive

compound	system-tested	class-name
CC(=O)c1c(C)[nH]c(-c2nc3ccc(N4CCN(C)CC4)cc3[nH]2)c1-c1ccc(OCC2CCOCC2)cc1	CCRF-CEM leukemia	inactive
COc1cc2nc(Cl)nc(Nc3cccc(C(=O)/C=C/c4ccc(F)cc4)c3)c2cc1OC	CCRF-CEM leukemia	inactive
CN1CCN(c2ccc3nc(-c4[nH]ncc4Nc4ncnc5[nH]ccc45)[nH]c3c2)CC1	CCRF-CEM leukemia	active
COC(=O)[C@]12CC[C@@H](C)[C@H](C)[C@@H]1C1=CC(=O)[C@@H]3[C@@]4(C)C[C@@H](O)[C@H](O)[C@@]5(C)COC(=C45)C[C@@]3(C)[C@]1(C)CC2	CCRF-CEM leukemia	inactive
O=c1[nH]c2c3ccncc3cc(-c3cccc(Cl)c3)c2c2cnccc12	CCRF-CEM leukemia	inactive
COc1ccc(NC(=O)c2ccoc2COc2ccccc2)cc1	CCRF-CEM leukemia	inactive
N=C(N)N=Nc1ccc(O)cc1	CCRF-CEM leukemia	inactive
COC(=O)[C@]12CC[C@@H](C)[C@H](C)[C@@H]1C1=CC[C@@H]3[C@@]4(C)C[C@@H](OC(C)=O)[C@H](O)[C@@](C)(COC(C)=O)[C@@H]4[C@H](O)C[C@@]3(C)[C@]1(C)CC2	CCRF-CEM leukemia	active
CC(=O)n1c(/C(C#N)=C/c2ccc(N(C)C)cc2)cc2ccccc21	CCRF-CEM leukemia	inactive
COc1ccc(C2CC(=O)c3c(nc4ccc(Cl)cc4c3N)C2)cc1 (centres undefined)	CCRF-CEM leukemia	inactive
NCCn1cc(-c2nc(-c3c[nH]c4ncccc34)cs2)c2cc(F)ccc21	CCRF-CEM leukemia	inactive
COc1cc2nc(Cl)nc(Nc3cccc(C(=O)/C=C/c4ccccc4)c3)c2cc1OC	CCRF-CEM leukemia	inactive
N#Cc1cnc2cc(OC[C@@H](O)CO)c(NC(=O)CC3CSSC3)cc2c1Nc1ccc(OCc2cccc(F)c2)c(Cl)c1	CCRF-CEM leukemia	active
C=CC(=O)N[C@H](Cc1ccc(-c2cc(Cl)cc(Cl)c2)cc1)[C@H](O)[C@@H](O)C(=O)O	CCRF-CEM leukemia	inactive
Nc1nc2c3ccncc3cc(-c3cccc(Cl)c3)c2c2cnccc12	CCRF-CEM leukemia	inactive
Cn1c2c(c3ccc(Cl)cc31)-n1cccc1C2=O	CCRF-CEM leukemia	inactive
O=C(/C=C/c1cccc(O)c1)c1ccccc1O	CCRF-CEM leukemia	inactive
COc1ccc(-c2n[nH]nc2-c2cc3ccccc3s2)cc1O	CCRF-CEM leukemia	inactive
NCCn1cc(-c2nc(-c3c[nH]c4ncccc34)cs2)c2ccccc21	CCRF-CEM leukemia	inactive

====

Test system: SF-295 CNS
test-description: NCI-60 one-dose screen, 48 h (100 = growth as untreated, 0 = no growth, -100 = all killed)
condition-info: 10 µM unless noted
Procedure: Cells are grown in 96 well plates and exposed to the test compound for 48 hours. Compounds are tested at a single concentration, which is 10^-5 M for most compounds. The reported endpoint is percent growth (GI% or GIPRCNT), where numbers from 0 - 100% represent growth inhibition, and numbers from -100% - 0 represent cell death. For example, a value of 40 represents 60% growth inhibition. A value of 0 means no net growth occurred over the course of the experiment. […]
The panel holds about 83,000 compounds, 20% with a hit somewhere; the sample as a whole holds those more often.

compound	growth, %
CC(=O)Cc1nsc(NC(=O)c2ccoc2COc2ccccc2)n1	98.6
CCC1C(=O)COC1=O (stereo unspecified)	97.9
COc1ccc(OCC(CO)N2CCN(c3ccccc3)CC2)cc1 (stereo unspecified)	101
Cn1cc(-c2csc(-c3cn(CCNC(=O)OC(C)(C)C)c4ccc(F)cc34)n2)c2cccnc21	86.2
Cc1ccc2c(c1)c1nc3cc(C)c(C)cc3nc1n2CCN(C)C	5.24
COC(=O)CNc1nc(N(C)O)nc(N(C)O)n1	45.2

====

Test system: OVCAR-4 ovarian
test-description: NCI-60 one-dose screen, 48 h (100 = growth as untreated, 0 = no growth, -100 = all killed)
condition-info: 10 µM unless noted
About 83,000 compounds went through this panel and 20% of them were active in at least one assay; those are over-represented in the sample as a whole. Activity calls are given as the source filed them. How the source made its calls: active means growth percent below 10; inactive means the rest.
Quick list: growth per entry.

structure-as-smiles	growth
CC(C)(C)n1cc(-c2ccnc(NCCCNS(=O)(=O)c3ccc(Cl)cc3)c2)c(-c2cccc(F)c2)n1	90% (inactive)
C=C(C)[C@@H]1CC[C@]2(C=O)CC[C@]3(C)[C@H](CC[C@@H]4[C@@]5(C)C/C(=C/c6cccnc6)C(=O)C(C)(C)[C@@H]5CC[C@]43C)[C@@H]12	64.6% (inactive)
Nc1c(C(=O)Nc2c(Cl)cccc2Cl)sc2nc3c(cc12)CCCC3	89.9% (inactive)
NC(=O)NCC1CCCCC1	102% (inactive)
CN1CCN(CC#CCn2c3c(c4ccccc42)C[C@]2(C)[C@H]4CC[C@@H]5[C@H]6[C@H]7OC(=O)[C@@]6(CCC7(C)C)CC[C@@]5(C)[C@]4(C)CC[C@H]2C3(C)C)CC1	74.1% (inactive)
O=C(N/N=C/c1ccccc1SSc1ccccc1/C=N/NC(=O)c1ccccc1)c1ccccc1	38.5% (inactive)
COc1ccc(-c2n[nH]nc2-c2cc3ccccc3s2)cc1O	52.4% (inactive)
COc1cc2ncnc(Nc3ccc(OCc4cccc(F)c4)c(Cl)c3)c2cc1NC(=O)C1CCCC1	100% (inactive)
COc1ccc2nc(-c3cc(-c4cc(OC)c(OC)c(OC)c4)n[nH]3)[nH]c2c1	-21.9% (active)
